Test system: rodent lifetime carcinogenesis bioassay, tumor incidence TD50
assay text: carcinogenic potency in animals, long-term in vivo studies, CPDB compilation (AID 1745844)
condition set: rat; strain Fischer 344; females; in feed; site: ear canal; lesion: carcinosarcoma + ceruminous carcinoma + squamous-cell carcinoma; dosed 78 weeks; study length 101 weeks
measured parameter: TD50

### Prompt State measured TD50 of the compound `O=[N+]([O-])c1ccc2c3c(cccc13)CC2` with rodent lifetime carcinogenesis bioassay, tumor incidence TD50.
### Response 14.9 mg/kg/day

* * *

Test system: rodent lifetime carcinogenesis bioassay, tumor incidence TD50
assay text: carcinogenic potency in animals, long-term in vivo studies, CPDB compilation (AID 1745844)
condition set: rat; strain Fischer 344; males; in feed; site: skin; lesion: squamous-cell papilloma; dosed 104 weeks; study length 105 weeks
measured parameter: TD50 (mg/kg/day)
Numbers only, in mg/kg/day.

### Prompt # return recorded TD50 for entry `OCC(CO)(CBr)CBr`
### Response 1130

The reported numbers originate from PubChem BioAssay AID1745844.
